# Test System: EGFR-L858R/C797S (H1975-clone #8 cells) (Homo sapiens, UniProt P00533, C797S/L858R)
# Construct: expressed in transfected cells; host or cells: H1975 (endogenous EGFR knocked out, clone #8)
# Sequence (P00533 25-1210 C797S/L858R): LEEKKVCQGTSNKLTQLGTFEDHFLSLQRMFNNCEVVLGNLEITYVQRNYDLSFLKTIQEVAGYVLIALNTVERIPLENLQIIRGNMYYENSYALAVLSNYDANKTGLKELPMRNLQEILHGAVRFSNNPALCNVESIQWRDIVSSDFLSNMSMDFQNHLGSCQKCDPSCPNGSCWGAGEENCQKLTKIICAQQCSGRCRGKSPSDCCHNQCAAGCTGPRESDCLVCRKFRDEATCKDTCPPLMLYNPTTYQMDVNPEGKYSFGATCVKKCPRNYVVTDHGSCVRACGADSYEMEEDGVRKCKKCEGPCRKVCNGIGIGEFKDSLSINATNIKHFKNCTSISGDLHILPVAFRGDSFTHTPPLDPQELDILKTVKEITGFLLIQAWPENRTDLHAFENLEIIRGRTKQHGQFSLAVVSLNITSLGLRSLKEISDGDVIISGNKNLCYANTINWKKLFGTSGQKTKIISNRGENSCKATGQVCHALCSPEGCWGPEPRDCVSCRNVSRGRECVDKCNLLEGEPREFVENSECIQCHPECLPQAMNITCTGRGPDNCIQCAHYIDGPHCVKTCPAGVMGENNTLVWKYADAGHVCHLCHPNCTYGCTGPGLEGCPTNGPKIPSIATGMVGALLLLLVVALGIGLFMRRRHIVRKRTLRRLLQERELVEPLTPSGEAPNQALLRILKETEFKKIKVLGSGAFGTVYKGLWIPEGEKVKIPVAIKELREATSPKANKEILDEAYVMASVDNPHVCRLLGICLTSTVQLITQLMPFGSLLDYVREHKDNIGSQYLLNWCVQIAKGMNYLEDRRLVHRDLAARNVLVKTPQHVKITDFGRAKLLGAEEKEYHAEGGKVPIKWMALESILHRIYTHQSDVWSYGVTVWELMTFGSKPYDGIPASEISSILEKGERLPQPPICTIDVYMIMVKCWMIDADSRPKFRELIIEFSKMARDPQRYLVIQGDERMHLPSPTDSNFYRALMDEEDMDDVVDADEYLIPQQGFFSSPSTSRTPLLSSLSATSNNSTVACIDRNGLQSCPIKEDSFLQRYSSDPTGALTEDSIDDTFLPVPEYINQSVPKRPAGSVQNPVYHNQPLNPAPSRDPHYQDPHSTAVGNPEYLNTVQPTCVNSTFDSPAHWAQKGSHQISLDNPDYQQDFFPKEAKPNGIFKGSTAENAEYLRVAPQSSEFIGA
# Method Description: Cell degradation of EGFR, HTRF assay, H1975-clone#8 (L858R/C797S) cells
# Type: cell-based
# Conditions Used: 16 h treatment, maximum percentage of degradation
Experimental Readout: Dmax (%)
Numbers only, in %.

// known answers, use as guide
# Molecule, Scale Unit, Reported Value
measured = [
    ("Cc1cc2cc(n1)-c1cnn(C)c1OC[C@H]1CCC(C1)CN1/C(=N/C2=O)Nc2ccc(N3CCC(CN4CCC(Nc5cc(F)c([C@H]6CCC(=O)NC6=O)c(F)c5)CC4)CC3)cc21", "%", 72),
    ("COC[C@H]1CN(c2ccc3c(c2)N2C[C@@H]4CC[C@H](COc5c(cnn5C)-c5cc(cc(C)n5)C(=O)/N=C/2N3)C4)CCN1C1CN(C2CCN(c3cc(F)c([C@H]4CCC(=O)NC4=O)c(F)c3)CC2)C1", "%", 70.7),
    ("CC[C@H]1CN(c2ccc3c(c2)N2C[C@@H]4CC[C@H](COc5c(c(C)nn5C)-c5cc(cc(C)n5)C(=O)/N=C/2N3)C4)CCN1C1CCN(c2cc(F)c([C@H]3CCC(=O)NC3=O)c(F)c2)CC1", "%", 90.2),
    ("Cc1cc2cc(n1)-c1c(C)nn(C)c1OC[C@H]1CC[C@H](C1)CN1/C(=N/C2=O)Nc2ccc(N3CCN(CC4CN(c5cc(F)c([C@H]6CCC(=O)NC6=O)c(F)c5)C4)CC3)cc21", "%", 91.8),
    ("Cc1cc2cc(n1)-c1cnn(C)c1OC[C@H]1CCC(C1)CN1/C(=N/C2=O)Nc2ccc(N3CCN([C@H]4CCN(c5ccc(C6CCC(=O)NC6=O)nc5C)CC4(F)F)CC3)cc21 (stereo partly drawn)", "%", 81.8),
    ("Cc1cc2cc(n1)-c1c(C)nn(C)c1OC[C@H]1CC[C@H](C1)CN1/C(=N/C2=O)Nc2ccc(N3C[C@H](C)N(C4CCN(c5cc(F)c([C@H]6CCC(=O)NC6=O)c(F)c5)CC4)C[C@H]3C)cc21", "%", 88.7),
    ("Cc1cc2cc(n1)-c1c(C)nn(C)c1OC[C@H]1CC[C@H](C1)CN1/C(=N/C2=O)Nc2ccc(N(C)C3CCN(C4CCN(c5cc(F)c([C@H]6CCC(=O)NC6=O)c(F)c5)CC4)CC3)cc21", "%", 82),
    ("Cc1cc2cc(n1)-c1c(C)nn(C)c1OC[C@H]1CC[C@H](C1)CN1/C(=N/C2=O)Nc2ccc(N3CCC(N4CCC(Nc5cc(F)c([C@H]6CCC(=O)NC6=O)c(F)c5)CC4)CC3)cc21 (single isomer, unassigned)", "%", 82.5),
]

// moving on: another record for Dmax
Noted Dmax for `COC[C@H]1CN(c2ccc3c(c2)N2C[C@H]4CC[C@@H](COc5c(c(C)nn5C)-c5cc(cc(C)n5)C(=O)/N=C/2N3)C4)CCN1C1CCN(c2cc(F)c([C@H]3CCC(=O)NC3=O)c(F)c2)CC1` , tested on EGFR-L858R/C797S (H1975-clone #8 cells) (Homo sapiens, UniProt P00533, C797S/L858R): 85
